tested on: HCT-15 colon; assay: NCI tumour cell line growth inhibition, 48 h
measured property: TGI

Prompt: Can you share its TGI? I mean this compound: "CCN(CC)C(=S)SS(=O)(=O)c1ccc(N)cc1"
Response: > 100 µM

Prompt: Can you share its TGI? I mean this compound: CC(=O)OC1COC(n2nc(N)nc2C)C(OC(C)=O)C1OC(C)=O (stereo not given)
Response: > 100 µM

Prompt: Can you share its TGI? I mean this compound: "COc1cc2nccc(Oc3ccc(NC(=O)C4(C(=O)Nc5ccc(F)cc5)CC4)cc3)c2cc1OC(=O)c1ccc(N)cc1"
Response: > 100 µM

Prompt: Can you share its TGI? I mean this compound: "O=C(OCc1ccccc1)c1nc2ccccc2n1S(=O)(=O)c1ccccc1"
Response: > 100 µM

Prompt: Can you share its TGI? I mean this compound: "NCCSSC/C=C\CSSCCN"
Response: > 100 µM

Prompt: Can you share its TGI? I mean this compound: "COC(=O)[C@]12CC[C@@H](C)[C@H](C)[C@@H]1C1=CC[C@@H]3[C@@]4(C)C[C@@H](OC(C)=O)[C@H](O)[C@@](C)(CO)[C@@H]4[C@H](O)C[C@@]3(C)[C@]1(C)CC2"
Response: 22.9 µM

Prompt: Can you share its TGI? I mean this compound: "C#CC(F)(F)[C@]1(O)CC[C@H]2[C@@H]3CCC4=CC(=O)CCC4=C3[C@@H](c3ccc(C4CC4)cc3)C[C@@]21C"
Response: > 100 µM

Prompt: Can you share its TGI? I mean this compound: "COc1ccc(C2=Cc3nc2c(-c2ccccc2)c2ccc([nH]2)c(-c2ccccc2)c2nc(c(-c4ccccc4)c4ccc([nH]4)c3-c3ccccc3)C=C2)cc1"
Response: > 100 µM

Prompt: Can you share its TGI? I mean this compound: Oc1ccc2c(c1)OCC1(O)Cc3cc(O)c(O)cc3C21 (stereo not given)
Response: 44.2 µM

Prompt: Can you share its TGI? I mean this compound: "CN/N=C(/C=C/c1ccccc1)C(C)C"
Response: > 100 µM

###

test system: UO-31 renal; test: NCI tumour cell line growth inhibition, 48 h
measured property: TGI (µM)
Respond numerically; units are µM and should not be typed.

Reference set, count: 2
COc1ccc(/C=C2\C(=O)NC(=O)c3ccccc32)cc1OC | 80
Nc1c(C(=O)N/N=C/c2ccco2)cnn1-c1ccnc2c(C(F)(F)F)cccc12 | 33.7

Prompt: Query the reported TGI for UO-31 renal; item: "Fc1ccc(-c2ncn(C3CCNCC3)c2-c2ccnc(Oc3cccc(C(F)(F)F)c3)n2)cc1"
Response: 6.41

Prompt: Query the reported TGI for UO-31 renal; item: "O=C(Cc1cc(=O)oc2cc(O)ccc12)N/N=C/c1ccc(N(CCCl)CCCl)cc1"
Response: 46.2

###

Property: TGI; scope: individual molecules
system: 786-0 renal; assay: NCI tumour cell line growth inhibition, 48 h

CCOC(=O)C1C(c2ccc3c(c2)OCO3)c2c([nH][nH]c2=O)CC1(O)OCC (stereo not drawn) | > 100 µM
CCC1c2[nH]c3ccccc3c2C[C@H]2C(=O)NC(Cc3c[nH]c4ccccc34)C(=O)N12 (stereo partly drawn) | 55.1 µM
COc1ccc(CNc2cnc3ccc(N)cc3n2)cc1OC | > 100 µM
CN(C)CCNS(=O)(=O)N(C)C | > 100 µM
N#CC(C(=O)C(N)=O)c1ccccc1Cl (stereo not drawn) | > 100 µM
CN(C)CCNc1ccc2nnn3c4ccc(O)cc4c(=O)c1c23 | 15.4 µM
CC1(O)C(C)(O)C(C)(O)C1(C)O (stereo not drawn) | > 100 µM
CN1CCN(Cc2nc3cccc4c3c([n+]2[O-])-c2ccccc2-4)CC1 | > 100 µM
C=C1CC[C@]2(C)[C@H](CC[C@@]34C[C@@H](CC[C@H]32)[C@@H](C(=O)O)C4)C1(C)C | > 12.5 µM
COC(=O)Nc1nc2ccc(NS(=O)(=O)c3ccc(Cl)cc3)cc2[nH]1 | 56.3 µM

Prompt: Can you share its TGI? I mean this molecule: CCCCCN1C(=O)/C(=c2\sc3n(c2=O)C2C(NN=3)N(CC)C(=O)N2CC)c2ccccc21 (stereo not drawn)
Response: 3.27 µM

Prompt: Can you share its TGI? I mean this molecule: "CCCCc1ccc(Nc2nc3c(ncn3COCCBr)c(=O)[nH]2)cc1"
Response: > 100 µM

Prompt: Can you share its TGI? I mean this molecule: "O=S(=O)(Nc1cc(F)cc(F)c1)c1ccc(-c2cnc(C3CC3)o2)cc1"
Response: > 100 µM

Prompt: Can you share its TGI? I mean this molecule: CCCC(=O)Nc1ccc(O)c2c1C1CCCCCC21 (stereo not drawn)
Response: > 100 µM

Prompt: Can you share its TGI? I mean this molecule: "COc1ccc(N)c(C(=O)CCNC(C)=O)c1"
Response: > 100 µM

###

test system: SNB-75 CNS; test: NCI tumour cell line growth inhibition, 48 h
measured property: TGI

Reference set, count: 2
O=c1[nH]nc(-c2nn(-c3ccc(Cl)cc3)cc2O)o1 | > 100 µM
N#CNC(=NCc1ccccc1)NCc1ccccc1 | > 100 µM

Prompt: Can you share its TGI? I mean this molecule: "NC1(P(=O)(O)O)CCCCC1"
Response: > 100 µM

Prompt: Can you share its TGI? I mean this molecule: "COc1cc(-c2cc(-c3nc4ccc(F)cc4[nH]3)[nH]n2)cc(OC)c1OC"
Response: 5.54 µM

Prompt: Can you share its TGI? I mean this molecule: "COc1ccc2c(c1OC)OC[C@@H](C1=CC(=O)C=C(O)C1=O)C2"
Response: 23.6 µM

Prompt: Can you share its TGI? I mean this molecule: CCOC(=O)/C=C/C1OC(C)(C)OC1/C=C/C(=O)OCC (stereo unspecified)
Response: > 100 µM

Prompt: Can you share its TGI? I mean this molecule: "c1ccc(P2c3ccccc3Nc3ccccc32)cc1"
Response: 71 µM

Prompt: Can you share its TGI? I mean this molecule: "Cc1ccc(C(=O)N/N=C(\N=Nc2cccc(C)c2)c2ccc(N(CCC#N)CCC#N)cc2C)cc1"
Response: > 100 µM

Prompt: Can you share its TGI? I mean this molecule: "Cc1c(C)n(COCCO)c2ncnc(N)c12"
Response: > 100 µM

Prompt: Can you share its TGI? I mean this molecule: CC1(C)OCC(C2OC(OC(=O)c3ccc(C(F)(F)F)cc3)C3OC(C)(C)OC23)O1 (stereo unspecified)
Response: > 77.5 µM

Prompt: Can you share its TGI? I mean this molecule: O=C(Nc1ccccc1SC(/C=C/NNC1=NC(c2ccccc2)C(c2ccccc2)=NN1)c1ccccc1)c1ccc(Cl)cc1Cl (stereo unspecified)
Response: > 100 µM

###

tested on: ACHN renal; assay: NCI tumour cell line growth inhibition, 48 h
measured property: TGI

Reference set, count: 5
CC[C@@]1(C[C@H]2C[C@@]3(C(=O)OC)c4[nH]c5ccccc5c4CCN3C2=S)COC2(CCCCC2)O1 | > 100 µM
CC1CC(c2ccccc2)Nc2nc3ccccc3n21 (stereo unspecified) | > 100 µM
CC(C)(C(=O)NCC(F)(F)C(F)(F)F)C(=O)N[C@@H]1C(=O)Nc2ccccc2-c2ccccc21 | > 100 µM
CCCCCCC1=NOC(C(c2cc[nH]c2)N(C)[C@H](C(=O)OC)C(C)C)C1 (stereo partly specified) | > 100 µM
Cc1ccc(I)cc1N=C=S | 54.8 µM

Prompt: Can you share its TGI? I mean this molecule: "COc1ccc(CCc2nc3cc(-c4c(C)noc4C)ccc3n2CCN2CCOCC2)cc1"
Response: > 100 µM

Prompt: Can you share its TGI? I mean this molecule: COC(=O)C(/C(=N/NC(N)=O)C(=O)Nc1c(C)cccc1C(C)(C)C)c1nc2ccc(Cl)cc2[nH]c1=O (stereo unspecified)
Response: > 100 µM

Prompt: Can you share its TGI? I mean this molecule: CCC(C)C1NC(=O)C(NC(=O)C(CC(C)C)N(C)C(=O)[C@@H]2C=CCN2C(=O)[C@H](C)O)C(C)OC(=O)[C@H](Cc2ccc(OC)cc2)N(C)C(=O)[C@@H]2CCCN2C(=O)[C@H](CC(C)C)NC(=O)C(C)C(=O)[C@H](C(C)C)OC(=O)CC1O (stereo partly specified)
Response: 0.0513 µM

Prompt: Can you share its TGI? I mean this molecule: CC(NC(=O)OC(C)(C)C)C(=O)NC1CCCC1 (stereo unspecified)
Response: > 100 µM

Prompt: Can you share its TGI? I mean this molecule: "[N-]=[N+]=Nc1cccc(-c2n[nH]c(Cl)cc2=O)c1"
Response: > 100 µM

Prompt: Can you share its TGI? I mean this molecule: "COc1ccc(CNc2cnc3ccc(N)cc3n2)cc1OC"
Response: > 100 µM

Prompt: Can you share its TGI? I mean this molecule: "N#CNC(=NCc1ccccc1)NCc1ccccc1"
Response: > 100 µM

Prompt: Can you share its TGI? I mean this molecule: NC(=O)CC(N)C(N)=O (stereo unspecified)
Response: > 100 µM

Prompt: Can you share its TGI? I mean this molecule: "CN(C)c1nc2n(CCO)ccnc-2c(=O)n1"
Response: > 100 µM

Prompt: Can you share its TGI? I mean this molecule: "COC(=O)[C@]12CC[C@@H](C)[C@H](C)[C@@H]1C1=CC[C@@H]3[C@@]4(C)C[C@@H](OC(C)=O)[C@H](O)[C@@](C)(CO)[C@@H]4[C@H](O)C[C@@]3(C)[C@]1(C)CC2"
Response: 24.5 µM

Prompt: Can you share its TGI? I mean this molecule: "COc1ccc(N)c(C(=O)CCNC(C)=O)c1"
Response: > 100 µM
